biological target: human recombinant Yes [a.a. 2–543 (end)] (Homo sapiens, UniProt P07947); construct: human recombinant Yes [a.a; 2–543 (end)]; purchased BPS Bioscience 40488; test: ADP-Glo kinase assay, inhibition rates of Yes phosphorylation activity (first and second screening); type: biochemical; conditions: first screening; mean of n = 4 wells; 10 μmol L−1 compound
Sequence (P07947 2-543): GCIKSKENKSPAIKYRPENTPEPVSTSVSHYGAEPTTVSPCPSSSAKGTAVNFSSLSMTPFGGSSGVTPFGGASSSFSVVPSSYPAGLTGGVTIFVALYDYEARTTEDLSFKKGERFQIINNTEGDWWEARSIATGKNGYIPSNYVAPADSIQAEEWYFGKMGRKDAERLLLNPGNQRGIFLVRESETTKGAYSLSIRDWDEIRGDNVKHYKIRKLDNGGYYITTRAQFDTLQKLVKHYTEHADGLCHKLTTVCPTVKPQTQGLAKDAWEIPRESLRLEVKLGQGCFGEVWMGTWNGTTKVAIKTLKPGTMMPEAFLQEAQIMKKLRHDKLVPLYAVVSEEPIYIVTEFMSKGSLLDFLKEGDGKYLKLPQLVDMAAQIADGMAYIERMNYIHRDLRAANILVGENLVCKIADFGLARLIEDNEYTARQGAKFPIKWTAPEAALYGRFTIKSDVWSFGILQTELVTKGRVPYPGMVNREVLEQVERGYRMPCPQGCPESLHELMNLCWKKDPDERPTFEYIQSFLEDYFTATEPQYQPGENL
Answer each item with its documented First screening IR (inhibition rate).
Note: a bare number is incomplete; add the unit.

Look at this molecule and give its reported First screening IR (inhibition rate). "O=C(CSc1nnc(-c2cccnc2)n1C1CC1)Nc1nc(-c2ccc(F)cc2)cs1" 10%

Look at this molecule and give its reported First screening IR (inhibition rate). "CN1C/C(=C/c2cccc(Br)c2)c2nc3ccccc3c(C(=O)O)c2C1" -9%

Look at this molecule and give its reported First screening IR (inhibition rate). "Cc1ccc(S(C)(=O)=O)cc1S(N)(=O)=O" 26%

Look at this molecule and give its reported First screening IR (inhibition rate). "CN(c1ccc(I)cc1)S(=O)(=O)c1cn[nH]c1" -1%

Look at this molecule and give its reported First screening IR (inhibition rate). "Cc1ccc(-n2c(-c3ccccc3)cn3c4c(=O)n(CCN5CCOCC5)c(=O)n(C)c4nc23)cc1" 14%

Look at this molecule and give its reported First screening IR (inhibition rate). CC(C)=CC1C(C(=O)Nc2c(C)cc(C)cc2C)C1(C)C (centres unmarked) 2%

Look at this molecule and give its reported First screening IR (inhibition rate). "Cc1cc(C)n(CCCNC(=O)c2cc3cc(F)ccc3[nH]2)n1" 8%

Look at this molecule and give its reported First screening IR (inhibition rate). Cc1ccc(-c2cc(C(=O)NC(c3ccccc3F)c3nccn3C)c3cnn(C(C)C)c3n2)s1 (centres unmarked) -2%

Look at this molecule and give its reported First screening IR (inhibition rate). "Cc1ccc2nc3c(c(C(=O)O)c2c1)CCC/C3=C/c1cnn(C(C)C)c1" -1%

Look at this molecule and give its reported First screening IR (inhibition rate). "Cc1c(C(=O)NCCSc2ccc(Br)cc2)[nH]c2c1C(=O)CCC2" 8%

Look at this molecule and give its reported First screening IR (inhibition rate). "Cn1nc([N+](=O)[O-])c2c(-c3nc4ccccc4n3C)c(N)n(C3CCCCC3)c2c1=O" 5%
